Target: D(3) dopamine receptor (Homo sapiens, UniProt P35462)
Sequence (P35462 whole entry): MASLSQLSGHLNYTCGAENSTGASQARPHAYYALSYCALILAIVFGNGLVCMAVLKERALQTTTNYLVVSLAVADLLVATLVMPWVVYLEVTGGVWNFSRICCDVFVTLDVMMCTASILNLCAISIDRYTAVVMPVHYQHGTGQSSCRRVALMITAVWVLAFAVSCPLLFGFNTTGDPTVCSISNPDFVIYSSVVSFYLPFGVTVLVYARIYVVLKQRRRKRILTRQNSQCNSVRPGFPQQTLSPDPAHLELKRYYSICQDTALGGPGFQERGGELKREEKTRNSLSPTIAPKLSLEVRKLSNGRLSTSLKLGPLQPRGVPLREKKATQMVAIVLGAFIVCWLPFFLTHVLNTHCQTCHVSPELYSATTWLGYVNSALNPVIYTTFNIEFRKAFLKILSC
Test: Binding affinity against human Dopamine receptor D3 in Chinese hamster ovary cells using [3H]spiperone.
pKi: −log10 of the molar value.
recordedMetric: pKi

{"compound": "CCCN(CCC)[C@@H]1CCc2c(ccc(C(O)Cc3ccc(Cl)cc3)c2OC)C1 (single isomer, unassigned; isomer I)", "valueObserved": 8.20}

(a) CCCN(CCC)C1CCc2cc(CN(C(=O)OC)c3ccc(OC)cc3)ccc2C1 (stereo not given)
(b) CCCN(CCC)C1CCc2cc(CCc3ccc(C(=O)O)cc3)ccc2C1 (stereo not given)
(c) CCCN(CCC)[C@@H]1CCc2cc(CCc3ccc(/C(C)=N\O)cc3)ccc2C1
(d) CCCN(CCC)[C@@H]1CCc2c(ccc(C(O)Cc3ccc(OC)cc3)c2OC)C1 (stereo not given in full)
Q: Please list these compounds in decreasing order of pKi. # output: labels, in the requested order
A: c, a, d, b
